Tested on: E. coli ATCC 25922
Test: MIC, E. coli ATCC 25922
Assay type: cell-based
Settings: Table 18, Ec
test-readout: MIC Ec

INSERT INTO measurements (compound, experimental_value) VALUES
  ('CNc1cc(F)cc2c1[nH]c1nc(Oc3cnc4ccoc4c3)nc(N3C[C@H]4CCN[C@H]4C3)c12 [Compound 10.14]', '≤ 0.5 µg/mL'),
  ('CNc1cc(F)cc2c1[nH]c1nc(Oc3cnc(C(C)O)nc3)nc(N(C)C)c12 (stereo not shown) [Compound 10.101]', '≤ 0.5 µg/mL'),
  ('CNc1cc(F)c(F)c2c1[nH]c1nc(Oc3cnc([C@H](C)O)nc3)nc(N3CC[C@]4(CC[C@H]4N)C3)c12 [Compound 10.93]', '≤ 0.5 µg/mL');

Form: item CNc1cc(F)c(Cl)c2c1[nH]c1nc(Oc3cnc([C@@H](C)O)nc3)nc(N3CC4(CC[C@@H]4N)C3)c12 [Compound 10.88] ; test system E. coli ATCC 25922; MIC Ec: ≤ 0.5 µg/mL

Form: item CNc1cc(F)c(F)c2c1[nH]c1nc(Oc3cnc(C)nc3)nc(N3CCOCC3)c12 [Compound 10.107] ; test system E. coli ATCC 25922; MIC Ec: ≤ 0.5 µg/mL

Form: item CNc1cc(F)cc2c1[nH]c1nc(Oc3cnc(C)nc3)nc(N3CCC(N)(CCC#N)C3)c12 (stereo not shown) [Compound 10.75] ; test system E. coli ATCC 25922; MIC Ec: 1 µg/mL

Form: item CNc1cc(F)cc2c1[nH]c1nc(Oc3ccn4ccnc4c3)nc(N3C[C@H]4C[C@@H]3C[C@H]4N)c12 [Compound 10.22] ; test system E. coli ATCC 25922; MIC Ec: ≤ 0.5 µg/mL

###

System: E. coli ATCC 25922
Test: MIC, E. coli ATCC 25922
Assay type: cell-based
Conditions: Escherichia coli, ATCC25922, Table 16; new R4 substituents; EC8 not defined; read-out: EC8 MIC
// reported MIC for each item listed
Dear colleague, please return just the value in µg/mL, with no unit written.

INSERT INTO results (compound, experimental_value) VALUES
  ('CNc1cc(F)cc2c1[nH]c1nc(Oc3cnc(C)nc3)nc(N3CC(N)C(C(=O)OC)C3)c12 (stereo not drawn) [drawing 1825]', 1),
  ('CNc1cc(F)cc2c1[nH]c1nc(Oc3cnc(C)nc3)nc(N3CCC(N)(CN)C3)c12 (stereo not drawn)', 16),
  ('CNc1cc(F)cc2c1[nH]c1nc(Oc3cnc4ccoc4c3)nc(N3CCC(C)(CN)C3)c12 (stereo not drawn)', 0.5);

Shift focus to the following entry.
Form: item CNc1cc(F)cc2c1[nH]c1nc(Oc3cnc(C)nc3)nc(NCCN)c12 ; test system E. coli ATCC 25922; MIC: 16

###

Test system: S. aureus ATCC 13709
Test: MIC, S. aureus ATCC 13709
Type: cell-based
Details: Staphylococcus aureus, ATCC13709, S. aureus; Alamar Blue read after overnight incubation at 35° C.; read-out: MIC Sa
With a cut-off of 4 µg/mL, any MIC strictly below it is called 1; any MIC meeting it or above is called 0.

INSERT INTO results (compound, classification) VALUES
  ('CNc1cc(F)cc2c1[nH]c1nc(Oc3cnc(C)nc3)nc(N3CC(N)C(C(=O)N4CCOCC4)C3)c12 (stereo not drawn)', 1),
  ('CNc1cc(F)cc2c1[nH]c1nc(Oc3cnc(C)nc3)nc(-c3cc(CN)ccc3F)c12', 1),
  ('CNc1cc(F)cc2c1[nH]c1nc(Oc3cnc(C)nc3)nc(N3CC(N)C(C(=O)NCC(C)O)C3)c12 (stereo not drawn)', 0),
  ('CNc1cc(F)cc2c1[nH]c1nc(Sc3cnc4cccnc4c3)nc(N3CC4C(N)C4C3)c12 (stereo not drawn)', 1),
  ('CNc1cc(F)cc2c1[nH]c1nc(Oc3cnc(C)nc3)nc(-c3cncnc3)c12', 1);

**Q:** Answer whether the compound CNc1cccc2c1[nH]c1nc(Oc3cncnc3)cc(-c3cn[nH]c3)c12 has MIC strictly less than 4 µg/mL
**A:** 1

**Q:** Answer whether the compound CNc1cccc2c1[nH]c1nc(Oc3ccc4nccnc4c3)cc(N3CC4C(N)C4C3)c12 (stereo not drawn) has MIC strictly less than 4 µg/mL
**A:** 1

###

// reported MIC Ec for each item listed
System: E. coli ATCC 25922
Test: MIC, E. coli ATCC 25922
Assay type: cell-based
Settings: Table 18, Ec

Record excerpt, results attached:
INSERT INTO assay_data (compound, target_system, experimental_value) VALUES
  ('CNc1cc(F)cc2c1[nH]c1nc(Oc3cnc(C)nc3)nc(N3CCC4(CC3)CC4CN)c12 (stereo not shown)', 'E. coli ATCC 25922', '2 µg/mL'),
  ('CNc1cc(F)cc2c1[nH]c1nc(Oc3cnc(C)nc3)nc(N3CC4CCC4(N)C3)c12 (stereo not shown)', 'E. coli ATCC 25922', '≤ 0.5 µg/mL'),
  ('CNc1cc(F)cc2c1[nH]c1nc(Oc3cnc(C(C)O)nc3)nc(N3C[C@@H]4[C@H](N)C(F)[C@@H]4C3)c12 (stereo partly shown)', 'E. coli ATCC 25922', '≤ 0.5 µg/mL');

The value of MIC Ec measured for the compound CNc1cc(F)cc2c1[nH]c1nc(NCc3cccnc3)nc(N3C[C@H]4C[C@@H]3C[C@H]4N)c12 [Compound 10.48] turned out to be 16 µg/mL

The value of MIC Ec measured for the compound CNc1cc(F)cc2c1[nH]c1nc(Oc3cnc4c(c3)C(=O)OC4(C)C)nc(N3C[C@H]4C[C@@H]3C[C@H]4N)c12 turned out to be ≤ 0.5 µg/mL

The value of MIC Ec measured for the compound CNc1cc(F)cc2c1[nH]c1nc(Oc3cnc4ccnn4c3)nc(N3CC[C@]4(C[C@@H]4N)C3)c12 turned out to be ≤ 0.5 µg/mL

The value of MIC Ec measured for the compound CNc1cc(F)cc2c1[nH]c1nc(Oc3cnc4cc[s+]([O-])c4c3)nc(N3C[C@H]4C[C@@H]3C[C@H]4N)c12 (stereo partly shown) turned out to be ≤ 0.5 µg/mL

###

System: E. coli ATCC 25922
Assay: MIC, E. coli ATCC 25922
Assay type: cell-based
Conditions: Escherichia coli, ATCC25922, Table 16; new R4 substituents; EC8 not defined; read-out: EC8 MIC
test-readout: MIC (µg/mL)
Dear colleague, please return just the value in µg/mL, with no unit written.

INSERT INTO assay_data (compound, test_readout, experimental_value) VALUES
  ('CNc1cc(F)cc2c1[nH]c1nc(Oc3cnc(C)nc3)nc(N3CCC[C@H]3CN)c12', 'MIC', 2);

Shift focus to the following entry.
The value of MIC measured for the compound CNc1cc(F)cc2c1[nH]c1nc(Oc3cnc(C)nc3)nc(N3CCC(C4CNC4)C3)c12 (centres unmarked) turned out to be 8

###

Tested on: S. aureus ATCC 13709
Assay: MIC, S. aureus ATCC 13709
Assay type: cell-based
Details: Staphylococcus aureus, ATCC13709, S. aureus; Alamar Blue read after overnight incubation at 35° C.; read-out: MIC Sa
test-readout: MIC (µg/mL)
Dear colleague, please return just the value in µg/mL, with no unit written.

Record excerpt, results attached:
INSERT INTO assay_data (compound, test_readout, unit_abbrev, experimental_value) VALUES
  ('CNc1cccc2c1[nH]c1nc(Oc3cnc(C)nc3)nc(Oc3cnc(C)nc3)c12 [Compound 8.2]', 'MIC', 'µg/mL', 1),
  ('CNc1cccc2c1[nH]c1nc(Oc3cncnc3)cc(N3CC4CC4(N)C3)c12 (stereo not drawn) [Compound 3.1]', 'MIC', 'µg/mL', 1),
  ('CNc1ncnc2c1[nH]c1nc(Oc3cnc(C)nc3)nc(N3CCC4(CC4N)C3)c12 (stereo not drawn) [Compound 7.09]', 'MIC', 'µg/mL', 8);

The value of MIC measured for the compound CNc1cccc2c1[nH]c1nc(Sc3cnc4cccnc4c3)nc(N3CCC(C)(N)C3)c12 (stereo not drawn) [Compound 1.59] turned out to be 1

The value of MIC measured for the compound CNc1cccc2c1[nH]c1nc(Oc3cncnc3)cc(N3CC4(CCNC4)C3)c12 [Compound 3.67] turned out to be 16

The value of MIC measured for the compound CNc1cccc2c1[nH]c1nc(Oc3cncnc3)cc(N3C[C@H](NCC4CC4)C4(CC4)C3)c12 [Compound 3.12] turned out to be 1

###

Test system: S. aureus ATCC 13709
Experiment: MIC, S. aureus ATCC 13709
Type: cell-based
Conditions: Staphylococcus aureus, ATCC13709, S. aureus; Alamar Blue read after overnight incubation at 35° C.; read-out: MIC Sa
test-readout: MIC (µg/mL)
Dear colleague, please return just the value in µg/mL, with no unit written.

INSERT INTO results (compound, target_system, test_readout, unit_abbrev, experimental_value) VALUES
  ('CNc1cccc2c1[nH]c1nc(Sc3cnc4cccnc4c3)nc(N3CC4CNCC4C3)c12 (stereo not shown) [Compound 1.55]', 'S. aureus ATCC 13709', 'MIC', 'µg/mL', 1);

Shift focus to the following entry.
The value of MIC measured for the compound COc1cccc2c1[nH]c1nc(Sc3cnc4nccnc4c3)nc(N3CC4C(N)C4C3)c12 (stereo not shown) [Compound 1.76] turned out to be 1
